Biological target: PADI4 (Homo sapiens, UniProt Q9UM07)
Construct: His6; made in house
Sequence (Q9UM07 whole entry): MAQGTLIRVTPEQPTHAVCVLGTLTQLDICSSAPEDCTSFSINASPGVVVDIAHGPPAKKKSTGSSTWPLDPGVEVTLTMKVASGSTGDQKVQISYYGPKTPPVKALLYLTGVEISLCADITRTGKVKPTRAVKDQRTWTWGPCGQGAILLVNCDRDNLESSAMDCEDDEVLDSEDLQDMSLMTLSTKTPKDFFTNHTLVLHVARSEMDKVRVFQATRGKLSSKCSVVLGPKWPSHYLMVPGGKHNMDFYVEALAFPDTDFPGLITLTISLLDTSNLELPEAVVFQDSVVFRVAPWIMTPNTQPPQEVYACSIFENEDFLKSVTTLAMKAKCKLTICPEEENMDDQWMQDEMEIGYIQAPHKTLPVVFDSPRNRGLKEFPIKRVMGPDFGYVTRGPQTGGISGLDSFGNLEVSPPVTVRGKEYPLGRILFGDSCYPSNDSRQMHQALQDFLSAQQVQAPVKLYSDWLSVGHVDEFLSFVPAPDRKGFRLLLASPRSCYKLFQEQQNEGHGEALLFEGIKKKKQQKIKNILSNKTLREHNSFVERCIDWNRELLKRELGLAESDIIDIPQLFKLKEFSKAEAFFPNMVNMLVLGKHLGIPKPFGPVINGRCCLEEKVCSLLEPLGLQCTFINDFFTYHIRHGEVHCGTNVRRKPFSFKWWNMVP
Experiment: COLDER inhibition assay, BAEE substrate, with or without 1 h preincubation
Type: biochemical
Conditions: peptide 0.003 µM, T=1; read-out: PADI4 activity normalised to 0.1% DMSO
Where a SMILES comes first, the peptide text is derived from it. Bridges are numbered along the chain shown (N, C = ends). [ ]: non-standard residue; d: D form. Orn(fluoroacetimidoyl) = N=C(CF)NCCC[C@H](N)C(=O)O
Reported Property: remaining activity at 0.003 µM (%)
The figure you give is taken to be in %; do not add the unit.

Request: remaining activity at 0.003 µM lookup needed for N=C(N)NCCC[C@@H]1NC(=O)[C@H](CCCNC(=N)CF)NC(=O)[C@H](CC(=O)O)NC(=O)[C@H](Cc2ccc(O)cc2)NC(=O)[C@H](CCCCN)NC(=O)[C@H](CO)NC(=O)[C@@H](Cc2ccc(O)cc2)NC(=O)CSC[C@@H](C(=O)NCC(N)=O)NC(=O)[C@H](CC(=O)O)NC(=O)[C@H](CCCNC(=N)N)NC(=O)[C@@H]2CCCN2C(=O)[C@H](CO)NC1=O [cP4_4, ySKYD(2)RSPRDCG] ({CH2CO}-[dY]SKYD[Orn(fluoroacetimidoyl)]RSPRDCG-NH2; thioether N-12) , thanks.
Result: 84.1
